Biological target: MPV fusion glycoprotein without the D280N mutation (MPV-F D280) (metapneumovirus)
Test: SPR; F protein loaded on streptavidin sensors, mAb in solution
Hi there, I'd appreciate the recorded Kd for every entry that follows.
Give bare numbers, in pM.

Solved entries:
{"columns": ["binder", "number"],
 "data": [
  ["MPK162 (antibody, V domains shown) VH: EVQLVESGGGLVKPGDSLRLSCAASGFSLSSYYMFWIRQAPGKGLEWVSDISGGSTFTNYADSVKGRFTISRDNAKKVLYLQMNSLRVDDSAVYYCVRGSSISPNWFESWGQGALVTVSS VL: QSVLTQPPSVSGAPGQRVTISCTGTSSNIGAGYDVHWYQQVPGTAPKLLIYGNSNRPSGVPDRFSGSKSGTAASLAINGLQTEDEAEYYCQSYDRSLTGSYVFGSGTRVFVR", 100000],
  ["MPK141 (antibody, V domains shown) VH: EVQLVESGGGLVKPGGSLRLSCAASGFTISGYYMTWIRQAPGKGLEWISYISGSSSYTNYADSVKGRFTISRDNGRNSVYLQMNSLRADDTGVYYCAREETPSPGPFDSWGQGILVTVSS VL: QSVLTQPPSVSGAPGQRIIISCIGSSSNIGTGYDVHWYQQLPGRAPKLLISRNTNRPSGIPDRFSGSKSGTSASLAITGLQADDEADYYCQSYDRGLDGWVFGGGTKLTVL", 1]
]}

As a next step, examine the binder that follows.
Look up Kd: MPK157 (antibody, V domains shown) VH: EVQLVESGGGLVKPGGSLRLSCSASGFTLSGYNMNWVRQAPGKGLEWISYISASSSYINYADSVKGRFTISRDNGRSSLYLQMNSLRAEDTAVYFCTTQAELPGWFDPWGQGTLVTVSS VL: QSVLTQPPSMSGAPGQRVTISCTGSSSNIGAGYDVNWYRQLPGTAPQLLIYRNTNRPSGVPDRFSGSNSGTSASLAITGLQADDEAHYYCQSYDRSLSGWVFGGGTKLTVL
1

Measured values drawn from patent US20260028391A1 for this set.
